# key: entry, value: koff
Target: T1, Homo sapiens factor Bb protein (human, UniProt P00751 260-764)
T1 construct: Bought from CompTech (A155); also called complement factor Bb; human factor Bb
T1 sequence (P00751 260-764 limits assumed): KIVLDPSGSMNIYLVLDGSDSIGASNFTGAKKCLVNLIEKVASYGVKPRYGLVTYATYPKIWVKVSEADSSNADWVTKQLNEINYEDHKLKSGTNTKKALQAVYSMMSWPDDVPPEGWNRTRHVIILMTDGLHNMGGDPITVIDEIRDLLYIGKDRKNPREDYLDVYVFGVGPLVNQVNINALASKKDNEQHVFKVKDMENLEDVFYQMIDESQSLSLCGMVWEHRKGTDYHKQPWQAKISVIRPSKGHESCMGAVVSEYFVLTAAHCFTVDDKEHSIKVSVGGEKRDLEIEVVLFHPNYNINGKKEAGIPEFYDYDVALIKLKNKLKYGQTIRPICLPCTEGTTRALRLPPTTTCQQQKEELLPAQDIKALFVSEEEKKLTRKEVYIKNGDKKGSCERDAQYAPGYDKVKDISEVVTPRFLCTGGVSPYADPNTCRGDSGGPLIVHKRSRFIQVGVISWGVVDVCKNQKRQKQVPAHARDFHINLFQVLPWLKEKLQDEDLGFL
Experiment: SPR single cycle kinetics, IgG on Protein A chip, factor Bb analyte
Record the value in s⁻¹, omitting the unit from your answer.

Field: example entries. Status: answers known.
VH3/Vκ5 (antibody, V domains shown) VH: EVQLVESGGGLVKPGGSLRLSCAASGFTFSNYAMSWVRQAPGKGLEWVATISNRGSYTYYADSVKGRFTISRDNAKNSLYLQMNSLRAEDTALYYCARERPMDYWGQGTLVTVSS VL: DIQMTQSPSTLSASVGDRVTITCRASQDVGTAVAWYQQKPGQPPKLLIYWASTRHTGVPDRFSGSGSGTDFTLTISSLQAEDFATYYCHQHSSNPLTFGQGTKLEIK	0.00451
VH1/Vκ4 (antibody, V domains shown) VH: EVQLVESGGGLVKPGGSLRLSCAASGFTFSNYAMSWVRQAPGKGLEWVATISNRGSYTYYPDSVKGRFTISRDNAKNSLYLQMSSLRSEDTALYYCARERPMDYWGQGTSVTVSS VL: DIQMTQSPSTLSASVGDRVTITCRASQDVGTAVAWYQQKPGQPPKLLIYWASTRHTGVPDRFSGSGSGTDFTLTISSLQAEDFAVYYCHQHSSNPLTFGQGTKLEIK	0.00294
VH1/Vκ2 (antibody, V domains shown) VH: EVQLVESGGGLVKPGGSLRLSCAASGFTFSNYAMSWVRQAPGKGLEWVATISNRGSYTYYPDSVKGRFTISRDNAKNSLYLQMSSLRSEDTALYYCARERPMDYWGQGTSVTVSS VL: DIVMTQSPSTLSASVGDRVTITCKASQDVGTAVAWYQQKPGQPPKLLIYWASTRHTGVPDRFTGSGSGTDFTLTISSLQAEDFAVYFCHQHSSNPLTFGQGTKLEIK	0.00251

Documented koff of VH2/Vκ1 (antibody, V domains shown) VH: EVQLVESGGGLVKPGGSLRLSCAASGFTFSNYAMSWVRQAPGKGLEWVATISNRGSYTYYPDSVKGRFTISRDNAKNSLYLQMNSLRAEDTALYYCARERPMDYWGQGTLVTVSS VL: DIVMTQSPSFLSASVGDRVTITCKASQDVGTAVAWYQQKPGQPPKLLIYWASTRHTGVPDRFTGSGSGTDFTLTISSLQSEDFAVYFCHQHSSNPLTFGQGTKLEIK : 0.00373

Documented koff of VH2/Vκ5 (antibody, V domains shown) VH: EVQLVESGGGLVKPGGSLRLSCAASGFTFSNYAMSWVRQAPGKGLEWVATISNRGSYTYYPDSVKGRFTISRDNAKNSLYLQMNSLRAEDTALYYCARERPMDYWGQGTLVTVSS VL: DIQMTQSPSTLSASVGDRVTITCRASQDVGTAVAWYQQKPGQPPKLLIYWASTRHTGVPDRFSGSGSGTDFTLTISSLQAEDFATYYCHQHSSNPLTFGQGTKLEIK : 0.00375

Origin of measurements: patent US20210332115A1
